Test system: SF-295 CNS
assay text: NCI-60 one-dose screen, 48 h (100 = growth as untreated, 0 = no growth, -100 = all killed)
measurement context: 10 µM unless noted
About 83,000 compounds went through this panel and 20% of them were active in at least one assay; those are over-represented in the sample as a whole.
Listing of entries alongside the reported growth.

- compound: "OCC1OC(O)C(O)C(O)C1O (stereo not drawn)"
  growth [%]: 102
- compound: "O=CN1CCCCC1"
  growth [%]: 97.8
- compound: "NN1CCOC(c2ccccc2)C1 (stereo not drawn)"
  growth [%]: 118
- compound: "CCCCNc1ccc(Nc2ccccc2)cc1"
  growth [%]: 56.3
- compound: "CC(C)NC(=O)N/C=C(\\C#N)C(N)=O"
  growth [%]: 102
- compound: "CC(C)C(C)(C)c1ccc(O)cc1"
  growth [%]: 118
- compound: "NC(=O)NCCCC(N)C(=O)O (stereo not drawn)"
  growth [%]: 117
- compound: "COc1ccc(N/C=C/C2=[N+](C)c3ccccc3C2(C)C)c(OC)c1"
  growth [%]: 86.2
